# method-summary: Assay for determining cytosolic clearance, cynomolgus monkey liver cytosol
# Format: in vitro ADME
# measurement-context: 0.5 μM compound, 1 mg/ml cynomolgus monkey liver cytosol, 37° C., pH 7.5
metric: cyno cytCL

Past entries and their recorded results:
COc1cccc(C(F)(F)F)c1CN1C(=O)CC[C@@H]1C(=O)NC(Cc1ccccc1)C(=O)C(=O)NCc1ccccn1 (mixture of isomers) [Example 43]: ++ (0-18 μl/min/mg)
CC(C)CNC(=O)C(=O)C(Cc1ccccc1)NC(=O)[C@H]1CCC(=O)N1Cc1ccccc1 (mixture of isomers) [Example 28]: ++ (0-18 μl/min/mg)
CCNC(=O)C(=O)C(Cc1ccccc1)NC(=O)[C@H]1CCC(=O)N1Cc1c(OC)cccc1C(F)(F)F (mixture of isomers) [Example 42]: ++ (0-18 μl/min/mg)
O=C(NCc1ccccn1)C(=O)C(Cc1ccccc1)NC(=O)[C@H]1CCC(=O)N1Cc1ccccc1 (some centres unmarked) [Example 20]: ++ (0-18 μl/min/mg)
CCNC(=O)C(=O)C(Cc1ccccc1)NC(=O)[C@H]1CCC(=O)N1Cc1ccccc1C(F)(F)F (mixture of isomers) [Example 37]: ++ (0-18 μl/min/mg)
O=C(NC1CC1)C(=O)C(Cc1ccccc1)NC(=O)[C@H]1CCC(=O)N1Cc1ccccc1 (mixture of isomers) [Example 27]: ++ (0-18 μl/min/mg)
CNC(=O)C(=O)C(Cc1ccccc1)NC(=O)[C@H]1CCC(=O)N1Cc1ccccc1 (mixture of isomers) [Example 25]: ++ (0-18 μl/min/mg)
CCNC(=O)C(=O)C(Cc1ccccc1)NC(=O)[C@H]1CCC(=O)N1Cc1ccccc1 (some centres unmarked) [Example 21]: ++ (0-18 μl/min/mg)
O=C(NC1CC1)C(=O)C(Cc1ccccc1)NC(=O)[C@H]1CCC(=O)N1Cc1ccccc1C(F)(F)F (mixture of isomers) [Example 36]: ++ (0-18 μl/min/mg)

Shift focus to the following entry.
Data point: O=C(NCc1ccc(C(F)(F)F)cc1)C(=O)C(Cc1ccccc1)NC(=O)[C@H]1CCC(=O)N1Cc1ccccc1 (mixture of isomers) [Example 68] ; cyno cytCL = ++ (0-18 μl/min/mg)
